test: Half life in Sprague-Dawley rat at 5 to 10 mg/kg, po administered as cassette dose measured upto 24 hrs by LC-MS analysis; type: ADME, organism-based; conditions: in vivo, dose 5-10 mg/kg
Parameter: half-life (h)

[[record]]
compound = "Nc1ncnc2c1c(-c1ccc(Oc3ccccc3)cc1)nn2C1CCN(C2CCN(CC#Cc3ccc4c(c3)CN(C3CCC(=O)NC3=O)C4=O)CC2)CC1 (stereo unspecified)"
test_result = 12.7

[[record]]
compound = "Nc1ncnc2c1c(-c1ccc(Oc3ccccc3)cc1)nn2[C@@H]1CCCN(C(=O)/C=C/C(=O)NCC#CCN2CCN(CC#Cc3ccc4c(c3)CN(C3CCC(=O)NC3=O)C4=O)CC2)C1 (stereo partly specified)"
test_result = 1.5

[[record]]
compound = "O=C1CCC(N2C(=O)c3cccc(N4CCN(C5CCN(CC#CCOc6ccc(C(F)(F)F)cc6)CC5)CC4)c3C2=O)C(=O)N1 (stereo unspecified)"
test_result = 9.7

[[record]]
compound = "O=C1CCC(N2C(=O)c3cccc(N4CCN(C5CCN(CCCCOc6ccc(C(F)(F)F)cc6)CC5)CC4)c3C2=O)C(=O)N1 (stereo unspecified)"
test_result = 5.3


1 = Nc1ncnc2c1c(-c1ccc(Oc3ccccc3)cc1)nn2[C@@H]1CCCN(C(=O)[C@H]2CCCC[C@H]2C(=O)N2CCN(CC#Cc3ccc4c(c3)CN(C3CCC(=O)NC3=O)C4=O)CC2)C1 (stereo partly specified)
2 = O=C1CCC(N2Cc3cc(C#CCN4CCN(c5ccc(C(F)(F)F)cc5)CC4)ccc3C2=O)C(=O)N1 (stereo unspecified)
Ask: From the items above, decide which of 1 and 2 has the lower half-life reading. Please identify the chosen entry by its label.
Result: 1
(1: 2 h, 2: 4 h)
